- Study system: vWF-GPIb interaction (Homo sapiens, UniProt P04275+P07359)
- Construct: endogenous in cells; host or cells: fresh or formalin-fixed platelets
- Sequence (P07359 17-652, one chain of several): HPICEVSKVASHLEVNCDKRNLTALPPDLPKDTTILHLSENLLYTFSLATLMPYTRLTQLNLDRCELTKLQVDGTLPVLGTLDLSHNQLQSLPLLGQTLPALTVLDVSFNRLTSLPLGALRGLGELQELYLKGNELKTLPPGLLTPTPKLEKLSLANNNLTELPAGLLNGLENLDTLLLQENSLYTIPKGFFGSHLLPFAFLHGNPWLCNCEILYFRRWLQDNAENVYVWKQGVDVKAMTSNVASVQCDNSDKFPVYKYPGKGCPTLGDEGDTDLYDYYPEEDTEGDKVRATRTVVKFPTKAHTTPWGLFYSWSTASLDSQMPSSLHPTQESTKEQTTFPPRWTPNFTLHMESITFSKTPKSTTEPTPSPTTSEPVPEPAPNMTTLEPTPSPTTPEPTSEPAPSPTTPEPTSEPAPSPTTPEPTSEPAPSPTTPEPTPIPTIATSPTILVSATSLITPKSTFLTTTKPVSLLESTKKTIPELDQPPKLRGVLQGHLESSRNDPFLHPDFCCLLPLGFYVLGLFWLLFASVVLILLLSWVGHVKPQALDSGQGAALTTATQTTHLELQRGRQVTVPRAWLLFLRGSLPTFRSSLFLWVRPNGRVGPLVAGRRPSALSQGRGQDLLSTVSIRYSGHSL
- Assay procedure: Inhibition of ristocetin-induced binding of vWF to formalin-fixed platelets (Example 1)
- Condition info: 125I-vWF 5 μg/ml, ristocetin 1.0 mg/ml
Where no end group is shown, it is not given here.
Property label: pIC50
Please express pIC50 as -log10 of the molar concentration.

{"Seq": "KRKRKRKRKRKRKR [(KR)7]", "Study system": "vWF-GPIb interaction (Homo sapiens, UniProt P04275+P07359)", "pIC50": 5.05}

Lab note: next sequence to report on.
# query: pIC50 of entry KRKRKRKRKR [(KR)5]
4.89

====

- Study system: GPIb-IX (Homo sapiens)
- Sequence (P04275 764-2813 limits assumed): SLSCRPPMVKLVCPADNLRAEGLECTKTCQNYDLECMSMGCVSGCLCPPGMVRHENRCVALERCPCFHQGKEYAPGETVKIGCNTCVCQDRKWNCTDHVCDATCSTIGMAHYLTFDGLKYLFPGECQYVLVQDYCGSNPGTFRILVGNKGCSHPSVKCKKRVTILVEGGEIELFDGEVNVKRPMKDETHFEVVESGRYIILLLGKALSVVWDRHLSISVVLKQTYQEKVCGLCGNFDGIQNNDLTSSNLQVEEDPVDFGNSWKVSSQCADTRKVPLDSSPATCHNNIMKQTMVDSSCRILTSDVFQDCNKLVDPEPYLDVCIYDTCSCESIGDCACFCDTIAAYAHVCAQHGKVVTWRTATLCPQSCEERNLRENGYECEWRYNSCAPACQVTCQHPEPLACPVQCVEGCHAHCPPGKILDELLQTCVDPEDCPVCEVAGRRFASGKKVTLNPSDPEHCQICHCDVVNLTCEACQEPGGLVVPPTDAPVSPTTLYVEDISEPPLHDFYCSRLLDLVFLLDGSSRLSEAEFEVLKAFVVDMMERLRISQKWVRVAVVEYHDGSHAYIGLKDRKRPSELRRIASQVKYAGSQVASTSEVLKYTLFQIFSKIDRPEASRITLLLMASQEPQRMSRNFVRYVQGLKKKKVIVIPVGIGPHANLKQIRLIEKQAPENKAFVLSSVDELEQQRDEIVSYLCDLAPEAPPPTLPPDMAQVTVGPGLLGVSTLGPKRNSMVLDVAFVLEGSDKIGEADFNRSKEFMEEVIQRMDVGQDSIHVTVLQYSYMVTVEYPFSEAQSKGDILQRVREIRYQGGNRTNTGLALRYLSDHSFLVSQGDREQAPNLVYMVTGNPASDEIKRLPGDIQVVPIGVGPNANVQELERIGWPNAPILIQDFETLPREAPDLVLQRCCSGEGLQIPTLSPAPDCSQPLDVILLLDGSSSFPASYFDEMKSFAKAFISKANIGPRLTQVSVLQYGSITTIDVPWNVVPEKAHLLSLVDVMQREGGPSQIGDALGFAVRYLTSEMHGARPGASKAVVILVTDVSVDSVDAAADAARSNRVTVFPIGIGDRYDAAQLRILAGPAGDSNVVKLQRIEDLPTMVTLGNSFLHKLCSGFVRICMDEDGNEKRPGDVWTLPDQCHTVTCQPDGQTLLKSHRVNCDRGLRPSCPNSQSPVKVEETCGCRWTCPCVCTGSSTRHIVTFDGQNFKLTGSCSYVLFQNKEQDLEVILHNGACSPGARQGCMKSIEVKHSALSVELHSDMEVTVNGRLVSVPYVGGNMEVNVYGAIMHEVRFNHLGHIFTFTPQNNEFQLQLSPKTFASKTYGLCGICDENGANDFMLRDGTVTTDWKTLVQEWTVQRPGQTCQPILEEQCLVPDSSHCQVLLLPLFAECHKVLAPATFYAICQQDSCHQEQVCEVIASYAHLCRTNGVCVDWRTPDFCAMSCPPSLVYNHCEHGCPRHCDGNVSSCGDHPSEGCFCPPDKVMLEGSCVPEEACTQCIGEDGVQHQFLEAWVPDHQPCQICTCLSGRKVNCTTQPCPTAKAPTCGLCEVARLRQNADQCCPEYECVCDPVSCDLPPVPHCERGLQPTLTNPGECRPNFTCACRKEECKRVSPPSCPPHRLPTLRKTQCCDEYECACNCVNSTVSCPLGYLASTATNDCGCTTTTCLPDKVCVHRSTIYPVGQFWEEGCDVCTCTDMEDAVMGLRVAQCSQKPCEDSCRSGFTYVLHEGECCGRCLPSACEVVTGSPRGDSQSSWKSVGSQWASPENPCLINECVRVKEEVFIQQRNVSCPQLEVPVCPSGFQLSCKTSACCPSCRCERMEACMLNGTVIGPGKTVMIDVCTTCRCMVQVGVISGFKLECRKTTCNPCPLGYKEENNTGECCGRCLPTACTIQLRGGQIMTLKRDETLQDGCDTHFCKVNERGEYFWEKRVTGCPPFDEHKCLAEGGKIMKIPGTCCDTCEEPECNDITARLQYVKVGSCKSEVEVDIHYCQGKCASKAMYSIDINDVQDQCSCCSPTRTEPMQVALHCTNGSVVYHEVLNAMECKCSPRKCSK
- Assay procedure: biochemical
Where no end group is shown, it is not given here.
Property label: IC50 (µM)
Dear colleague, please return just the value in µM, with no unit written.

Please report the recorded IC50 for GDTDLYDYYPEEDTE [peptide 25] .
530

====

- Study system: GPIb-IX (Homo sapiens)
- Construct: which utilizes washed platelets fixed with formaldehyde; endogenous in cells; host or cells: washed platelets fixed with formaldehyde
- Assay procedure: Ristocetin-dependent 125I-vWF binding to formaldehyde-fixed washed platelets (Examples 5-7)
- Condition info: 125I-vWF 2 μg/ml; read-out: concentration that inhibits 50% of ristocetin-induced binding of vWF
Where no end group is shown, it is not given here.
Property label: pIC50
Note: pIC50 values are expressed as the negative base-10 logarithm of concentration in M.

So what does the record say about pIC50 for GDTDLYDYYPEEDTE [peptide 25] ?
3.38

====

- Study system: vWF-GPIb interaction (Homo sapiens, UniProt P04275+P07359)
- Construct: endogenous in cells; host or cells: fresh or formalin-fixed platelets
- Assay procedure: Inhibition of asialo-vWF binding to fresh platelets (Example 2)
- Condition info: 125I-asialo-vWF 5 μg/ml
Where no end group is shown, it is not given here.
Property label: pIC50
Worth noting: pIC50 values are minus log10 of concentrations stated in mol/L.

Using the record for KRKRKRKRKR [(KR)5] , report its pIC50.
5.77
